Assay: Measurement of logP values by HPLC on reversed phase columns (EEC directive 79/831 Annex V.A8)
Format: physicochemical
Settings: method [a]
Listing of entries alongside the reported LogP^[a].

>  <Smiles text>
C=C1c2cccc(NC(=O)c3c(C)nn(C)c3F)c2CCC1(C)C

>  <LogP^[a]>
3.48^[a]

$$$$
>  <Smiles text>
CON=C1CCCc2c(NC(=O)c3nccnc3I)cccc21

>  <LogP^[a]>
2.94^[a]

$$$$
>  <Smiles text>
C=C1c2cccc(NC(=O)c3sc(C)nc3CC)c2CCC1(C)C

>  <LogP^[a]>
3.99^[a]

$$$$
>  <Smiles text>
C=C1c2cccc(NC(=O)c3c(C)nn(C)c3C)c2CCC1(C)C

>  <LogP^[a]>
3.05^[a]

$$$$
>  <Smiles text>
CCON=C1CCCc2c(NC(=O)c3c(C)nn(C)c3F)cccc21

>  <LogP^[a]>
2.86^[a]

$$$$
